- tgt: Cytochrome P450 3A4 (Homo sapiens) (UniProt P08684)
- Sequence (P08684 whole entry, looked up): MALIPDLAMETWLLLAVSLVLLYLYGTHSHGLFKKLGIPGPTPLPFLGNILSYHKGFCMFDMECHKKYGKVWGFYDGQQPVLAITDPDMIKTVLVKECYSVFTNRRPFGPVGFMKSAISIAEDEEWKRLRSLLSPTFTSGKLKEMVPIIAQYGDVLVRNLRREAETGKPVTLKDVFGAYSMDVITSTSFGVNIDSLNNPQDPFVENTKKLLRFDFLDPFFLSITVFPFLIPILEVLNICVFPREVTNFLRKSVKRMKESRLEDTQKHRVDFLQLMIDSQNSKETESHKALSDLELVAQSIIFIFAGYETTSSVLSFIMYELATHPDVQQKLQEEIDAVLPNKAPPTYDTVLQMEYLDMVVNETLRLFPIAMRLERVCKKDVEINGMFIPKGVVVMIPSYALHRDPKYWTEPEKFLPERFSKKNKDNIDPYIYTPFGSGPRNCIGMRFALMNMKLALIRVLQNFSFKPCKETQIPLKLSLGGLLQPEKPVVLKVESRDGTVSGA
- assayProtocol: Cytochrome P450 Family 3 Subfamily A Member 4 (CYP3A4) small molecule antagonists: luciferase reporter qHTS assay (AID 1671201); also: nearly all actives have a fitted effect of over 50% in size
- setupConditions: P450-Glo CYP3A4 enzyme, luciferin luminescence, 1 h; series mostly up to 115 µM
- Text: National Center for Advancing Translational Sciences [NCATS] U.S. Environmental Protection Agency [EPA] National Institutes of Environmental Health Sciences [NIEHS] National Toxicology Program [NTP] U.S. Food and Drug Administration [FDA] Cytochrome P450 (CYP) enzymes are membrane-bound hemeproteins that play a key role in metabolism of drugs and xenobiotics. […] The luciferin products formed are detected with a luciferin detection reagent, and the amount of light produced is proportional to CYP activity. […]
Records with an inconclusive call do not appear. The source made the active and inactive calls. Calls follow the shape of the dose curve; as a rule, active = well fitted inhibition curve with a large enough effect in the repeat runs; inconclusive = weak or mixed curves; inactive = no such curve, though single readings can be large or run the other way.
Outcomes: t for active, f for inactive

> print(dat)
                                    compound  assignedcategory
 1                  Cc1ccc(N)cc1[N+](=O)[O-]                 t
 2  Cc1onc(-c2ccccc2)c1-c1ccc(S(N)(=O)=O)cc1                 f
 3                            COc1cccc(Br)c1                 f
 4     NC(=O)CCCCC1CCSS1 (centres undefined)                 f
 5                      NC(=O)c1c(Cl)cccc1Cl                 t
 6   CC(C)(C)OC(=O)N1C[C@@H](F)C[C@H]1C(=O)O                 t
 7  C=CCOCC(O)CS(=O)(=O)O (centres undefined)                 f
 8  Cc1c(C)n(CCN(C)C)c2ccc(C(=O)OCCN(C)C)cc12                 f
 9                           CC(=O)OC(C)(C)C                 f
10       CCCCCCCCCCC1CO1 (centres undefined)                 f
11  CCN1CCN(c2cc3c(cc2F)c(=O)c(C(=O)O)cn3C2CC2)CC1                 f
12                            N#CC1(O)CCCCC1                 f
13                   O=C(O)c1ccc[n+]([O-])c1                 f
14                 OCC(CO)(CO)COCC(CO)(CO)CO                 f
